Assay: NCI Yeast Anticancer Drug Screen. Data for the cln2 rad14 strain (AID 165);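 note: 0% = growth equal to vehicle treated cultures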
Details: S. cerevisiae cln2 rad14 strain, at 50.0 µM, stronger effect = higher value
This is part of a sample that, as a whole, favours compounds with a hit. Of some 79,000 tested, about 15% had one in any assay.
OBSERVATION_TYPE: growth inhibition (%)
I only need the number, in %, no unit after it.

Some solved entries appear below for comparison.
1. CC(C)N(CC(=O)O)CC(=O)O: -5
2. CC(=O)Nc1cccc(Oc2ccc(Cl)cc2[N+](=O)[O-])c1: -5.2
3. O=C(Nc1nc(=S)[nH][nH]1)C(=O)C1C(=O)Nc2ccccc2S1=O (configuration not stated): 4
4. CCCCC1SC(N)=NC1=O (configuration not stated): 53.2
5. C=CCOC(=O)CCC(=O)OCC=C: -15.4

Briefly, growth inhibition measured for O=C(O)c1cccc(Br)c1 : -38.2

Per the record, COC(=O)C(N)Cc1ccc(OCc2ccccc2)cc1 (configuration not stated) has growth inhibition of -4.25

###

Assay: NCI Yeast Anticancer Drug Screen. Data for the cln2 rad14 strain (AID 165);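 note: 0% = growth equal to vehicle treated cultures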
Details: S. cerevisiae cln2 rad14 strain, at 50.0 µM, stronger effect = higher value
This is part of a sample that, as a whole, favours compounds with a hit. Of some 79,000 tested, about 15% had one in any assay.
Readings of growth inhibition for the listed compounds
Form entry: value (%) — number only.

Some entries whose results are on file:
1. COC(=O)[C@]1(C)CCC[C@]2(C)c3ccc(C(C)=O)cc3C(=O)C[C@@H]12: -31.6
2. Cc1c(C2CCC(=O)C2)c2ccccc2n1C (stereo unspecified): 15.4
3. Cc1ccc(-c2n[nH]c(=O)n2/N=C\c2ccc([N+](=O)[O-])cc2)cc1: 3.55
4. C/C=C/C(=O)OCCCCCCCCCCCC: -16.8
5. N#Cc1nn(CCCl)c(=O)c2ccccc12: 12.2
6. Cc1cc(N=C2C=CC(=O)C=C2)ccc1O: 10.2

Data point: O=C1c2ccccc2C(=O)N1C1(C(=O)O)CCCC1 ; growth inhibition = -27.1

Item: CCN(CC)CC(O)c1cccc2cccnc12 (stereo unspecified) | growth inhibition: 8.8

Reported growth inhibition for Clc1ccccc1-c1nc(-c2ccncc2)no1 was 34.1

The measured growth inhibition associated with CNc1ccc(O)cc1 reads -24.4

Lab note: measured growth inhibition of CCOC(CCCl)c1ccccc1 (stereo unspecified) was 7.85

###

Assay: NCI Yeast Anticancer Drug Screen. Data for the cln2 rad14 strain (AID 165);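 note: 0% = growth equal to vehicle treated cultures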
Settings: S. cerevisiae cln2 rad14 strain, at 50.0 µM, stronger effect = higher value
Experimental: Growth inhibition of yeast strains with defined genetic alterations is measured as a screen for potential anti-cancer activity. Selected strains with alterations in DNA damage repair or cell cycle control were exposed to compounds and growth inhibition was measured relative to vehicle treated controls. The strain used in this assay is cln2 rad14
This is part of a sample that, as a whole, favours compounds with a hit. Of some 79,000 tested, about 15% had one in any assay.
OBSERVATION_TYPE: growth inhibition (%)
Just the number please, in %, no unit attached.

Solved entries:
1. Cc1cc(O)c(C(C)C)cc1N=O: 16.6
2. CN(C)CC(CN(C)C)C(=O)O: 22
3. CC1OC(OC2C(Oc3cc(O)c4c(=O)cc(-c5ccc(O)cc5)oc4c3)OC(CO)C(O)C2O)C(O)C(O)C1O (centres undefined): -19.9

Sample OC(c1ccccc1)(c1ccccc1)c1ccccc1CNc1ccccc1 ; growth inhibition observed: 8

Briefly, growth inhibition measured for O=C(O)c1cccc(SS(=O)(=O)c2cccc(C(=O)O)c2)c1 : 9.45

In plain terms, O=C(c1ccccc1)C1(Br)CCCCC1 has a documented growth inhibition of -8.8

// CC(c1ccc(O)cc1)c1cc2c(cc1OCCO)OCO2 (centres undefined) : growth inhibition value = 99.3

Data point: CC(O)CC(=O)c1ccc(O)cc1 (centres undefined) ; growth inhibition = 1.7

For record Nc1c(Cl)cc2c(c1Br)C(=O)c1ccccc1C2=O the listed growth inhibition is 23.4

###

Assay: NCI Yeast Anticancer Drug Screen. Data for the sgs1 mgt1 strain (AID 161);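 note: 0% = growth of cultures given vehicle only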
Conditions: S. cerevisiae sgs1 mgt1 strain, at 50.0 µM, stronger effect = higher value
About 79,000 compounds went through this panel and 15% of them were active in at least one assay; those are over-represented in the sample as a whole.
OBSERVATION_TYPE: growth inhibition (%)
Could you give me the number in %? Just the number is fine.

Past entries and their recorded results:
1. CN(C)/C=N/c1nc2ncn(CCOC(=O)c3ccccc3)c2c(=O)[nH]1: 11.3
2. N#CC(=S)Nc1ccc(Cl)c(Cl)c1: 22.6
3. O=C(C[n+]1ccccc1Cc1ccccc1)c1ccccc1: -14
4. CC1=CC=NN2C(=O)[C@H](C)C2C1 (stereo partly specified): 0.3
5. Cc1c(C)c2cc3ccc(Cl)cc3nc2c2ccccc12: 2.75

Memo: CCOC(=O)C1CC(O)c2ccc(Cl)cc2N1 (stereo unspecified) , reported growth inhibition: 20.6

Per the records, this molecule ( COC(=O)c1oc([N+](=O)[O-])c(-c2ccccc2)c1-c1ccccc1 ) has growth inhibition equal to 29.3

Note to self: growth inhibition recorded for NNC(=O)Nc1ccccc1 was -0.5

Briefly, growth inhibition measured for N#CC(NCCCNC(C#N)c1ccccc1)c1ccccc1 (stereo unspecified) : -4.6

Noted for CCN(CC)c1ccc(C(C#N)(c2ccc(N(CC)Cc3cccc(S(=O)(=O)O)c3)cc2)c2ccc(N(CC)Cc3cccc(S(=O)(=O)O)c3)cc2)cc1 : its growth inhibition reads 4.55

Record O=[N+]([O-])c1ccc(C(O)(C#CCN2CCCC2)c2ccccc2)cc1 (stereo unspecified) , field growth inhibition: -24.1

Lab book: growth inhibition of O=C(O)/C(=C\c1ccncc1)c1cccc2ccccc12 noted as -37.4

// O=NN(CCCl)C(=O)NC1CCC(CC(=O)O)CC1 (stereo unspecified) : growth inhibition value = -9.25

Recorded growth inhibition (molecule NCCSCCC(=O)O ): -36.9

Entry CCCCCCCCCCCCCCNC(=O)C(C)O (stereo unspecified) — recorded growth inhibition = -15.7

Item: COc1ccc(CCn2cnn3c(=O)c4ccccc4nc3c2=O)cc1OC | growth inhibition: -9.1

###

The reader will find reported growth inhibition values listed item by item below.
Assay: NCI Yeast Anticancer Drug Screen. Data for the bub3 strain (AID 167)
Conditions: S. cerevisiae bub3 mutant strain, at 50.0 µM, stronger effect = higher value
This is part of a sample that, as a whole, favours compounds with a hit. Of some 79,000 tested, about 15% had one in any assay.
// units = %; emit number, no label

Take a look at these entries with their results.
1) N#Cc1c(N)nc(Nc2cccc3ccccc23)c(C#N)c1C#N: 29.4
2) N#CC1CCCC/C1=N/NC(N)=O (configuration not stated): -6.65

Lab book: growth inhibition of CCOC(=O)c1csc(N)n1 noted as -9.7

The compound identified as N#CCC(=O)N1CCc2ccccc2C1 registered its growth inhibition at 9.6

Record O=C(OCc1ccccc1)c1ccccc1 , field growth inhibition: 28.1

response.value for Clc1cc(Cl)nc(Nc2ccc3c(c2)CCC3)n1 (field: growth inhibition) = 3.9

The compound identified as C=CCNC(=S)Nc1ccccc1OCC registered its growth inhibition at -9.6

For record CC1=C(CN(CC(=O)O)CC(=O)O)C(=O)C(C(C)C)=C/C1=C(\c1ccccc1S(=O)(=O)O)c1cc(C(C)C)c(O)c(CN(CC(=O)O)CC(=O)O)c1C the listed growth inhibition is 0.75

Input CCOc1c(F)ccc(F)c1-c1c(F)ccc(F)c1OCC . Output growth inhibition: 3.3

For COc1cc([C@@H]2c3cc4c(cc3[C@H](O)[C@H]3COC(=O)[C@@H]23)OCO4)cc(OC)c1OC the compound record lists growth inhibition as 7.15

Value of growth inhibition reported for the compound CC(=O)c1c(O)cccc1O is 8.7

growth inhibition reading for CCNCc1cc(Nc2nc(NC3CCC(N(C)C)CC3)c3ccccc3n2)ccc1OC (configuration not stated) : 3.45

###

Experiment: NCI Yeast Anticancer Drug Screen. Data for the rad50 strain (AID 155);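 note: 0% = growth of vehicle-only cultures of the same strain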
Settings: S. cerevisiae rad50 strain growth inhibition; at 50.0 µM; stronger effect = higher value
The panel holds about 79,000 compounds, 15% with a hit somewhere; the sample as a whole holds those more often.
OBSERVATION_TYPE: growth inhibition (%)
Give a bare numeral; the unit % is implied.

Worked cases, answers included:
1. COc1ccc(Cc2ccc(OC)c3ccccc23)c2ccccc12: 9.65
2. COC(=O)NN/C=C(\C=Nc1ccccc1)[N+](=O)[O-]: -0.25
3. CC1=C(Br)C(=O)C(C(C)C)=CC1=O: -38.2
4. COC1OC(CO)C(O)C(NC(=O)[C@H](Cc2ccc(O)cc2)NC(=O)OCc2ccccc2)C1O (stereo not given in full): 8.6
5. O=C(O)C1CCOCC1: 9.9
6. Cc1cc2nc3c(=O)[nH]c(=O)nc-3n(CC(O)C(O)C(O)C(O)CO)c2cc1C (stereo not given): 33.5

Value of measured growth inhibition for the entry CC1/C(=N/Nc2ccc([N+](=O)[O-])cc2)CC2C3(C)CCC2(C(C)C(=O)O)C(=O)C13 (stereo not given) : 78

Record CCOC(=O)C1=C(C(=O)c2ccc(OC)cc2)C(c2cccc([N+](=O)[O-])c2)C(C(=O)c2ccc(OC)cc2)=C(C(=O)OCC)N1 , field growth inhibition: -30.8

compound CCOC(=O)/C(=C\c1ccccc1)NC(=O)c1ccccc1 , growth inhibition observed: 5.4

# growth inhibition (compound: Cc1ccc(NC(=O)c2cc3ccccc3c(N=Nc3ccccc3O)c2O)c(C)c1 ) is -11.9
